# MEASURED TARGET: HBO-KAT7 (Homo sapiens)
# Construct: encoding amino acid residues 325 to 611 (Uniprot 095251-1) of human KAT7; made in house; host or cells: E. coli BL21 DE3 RIL
# Sequence (O95251 with tags, fused parts or gaps): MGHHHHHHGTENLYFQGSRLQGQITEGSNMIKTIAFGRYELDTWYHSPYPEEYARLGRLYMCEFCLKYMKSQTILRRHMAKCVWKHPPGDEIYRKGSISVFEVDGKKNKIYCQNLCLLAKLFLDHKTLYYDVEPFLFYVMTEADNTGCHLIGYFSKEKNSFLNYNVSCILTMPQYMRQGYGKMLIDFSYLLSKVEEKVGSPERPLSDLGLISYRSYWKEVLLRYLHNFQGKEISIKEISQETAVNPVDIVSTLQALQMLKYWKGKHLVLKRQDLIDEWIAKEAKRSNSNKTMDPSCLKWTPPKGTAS
# EXPERIMENTAL PROTOCOL: Acetyltransferase biochemical assay (AlphaScreen), KAT7
# COND: Table 3 (HBO-KAT7); 0.4 μM Acetyl coenzyme A, histone H3.1, 40 nM enzyme
ASSAY METRIC: log10 of IC50 (log10 of the value in µM)

[
  {
    "MOLECULE": "O=C(NCCc1ccccc1)C1=Nc2ccc(I)cc2S(=O)(=O)N1 [Example 93]",
    "MEASURED": 0.98
  },
  {
    "MOLECULE": "O=C(NCC(c1ccccc1)c1ncco1)C1=Nc2ccc(-c3cn[nH]c3)cc2S(=O)(=O)N1 (stereo not drawn) [Example 26]",
    "MEASURED": 0.17
  },
  {
    "MOLECULE": "O=C(NCCc1ccccc1-c1ncco1)C1=Nc2ccccc2S(=O)(=O)N1 [Example 7]",
    "MEASURED": 1.08
  },
  {
    "MOLECULE": "COC(CNC(=O)C1=Nc2ccc(I)cc2S(=O)(=O)N1)c1ccccc1 (stereo not drawn) [Example 88]",
    "MEASURED": -0.18
  },
  {
    "MOLECULE": "CC(CNC(=O)C1=Nc2ccccc2S(=O)(=O)N1)(c1ccccc1)c1ccccc1 [Example 206]",
    "MEASURED": 0.86
  },
  {
    "MOLECULE": "O=C(NCC(c1ccccc1)c1ncco1)C1=Nc2ccccc2S(=O)(=O)N1 (single isomer, unassigned) [Example 137]",
    "MEASURED": -0.04
  }
]

###

# System: histone H3 Lysine 14 acetylation (HBO1 mediated) in U2OS cells
# EXPERIMENTAL PROTOCOL: Histone H3 Lysine 14 Acetylation Biomarker Assay (384-well, U2OS)
# Assay type: cell-based
# COND: Homo sapiens, serum free medium, 24 hours incubation
// values below are reported IC50
ASSAY METRIC: IC50

[
  {
    "COMPOUND": "O=C(NCC(c1ccccn1)n1cccn1)C1=Nc2ccc(Br)cc2S(=O)(=O)N1 (stereo not drawn)",
    "ASSAY METRIC": "IC50",
    "MEASURED": "> 40 µM"
  },
  {
    "COMPOUND": "Nc1nnc(C(CNC(=O)C2=Nc3ccc(I)cc3S(=O)(=O)N2)c2ccccc2)o1 (stereo not drawn)",
    "ASSAY METRIC": "IC50",
    "MEASURED": "> 20 µM"
  },
  {
    "COMPOUND": "O=C(NCC(CO)c1ccccc1)C1=Nc2ccc(Cl)cc2S(=O)(=O)N1 (stereo not drawn)",
    "ASSAY METRIC": "IC50",
    "MEASURED": "> 40 µM"
  }
]

###

# MEASURED TARGET: MOZ-KAT6A (Homo sapiens, UniProt Q92794, A567V)
# Construct: encoding amino acid residues 507 to 778 (Uniprot Q92794-1) of human KAT6A; made in house; host or cells: E. coli BL21 DE3
# Sequence (Q92794 507-778 A567V limits assumed): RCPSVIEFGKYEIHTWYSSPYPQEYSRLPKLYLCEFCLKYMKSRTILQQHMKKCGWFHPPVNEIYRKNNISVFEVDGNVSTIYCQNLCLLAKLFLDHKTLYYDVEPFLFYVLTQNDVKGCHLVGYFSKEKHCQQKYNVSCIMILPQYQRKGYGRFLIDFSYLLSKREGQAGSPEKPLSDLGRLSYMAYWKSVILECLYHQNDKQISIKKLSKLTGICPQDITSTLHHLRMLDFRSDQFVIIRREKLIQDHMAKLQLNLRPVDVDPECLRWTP
# EXPERIMENTAL PROTOCOL: Revised Acetyltransferase Biochemical Assay, KAT6A
# COND: Table 8 (MOZ-KAT6A), 1 μM Acetyl coenzyme A
Listed here are compounds together with their documented IC50.

[
  {
    "COMPOUND": "CNC(C)c1ccc2c(c1)S(=O)(=O)NC(C(=O)NCC(c1ccccc1)c1ncco1)=N2 (stereo not drawn)",
    "IC50 [nM]": 378
  },
  {
    "COMPOUND": "O=C(NCC(c1ccccc1)c1ncco1)C1=Nc2ccc(F)cc2S(=O)(=O)N1 (single isomer, unassigned) [Example 144]",
    "IC50 [nM]": 21
  },
  {
    "COMPOUND": "O=C(NCC(CO)c1ccccc1)C1=Nc2ccc(Cl)cc2S(=O)(=O)N1 (stereo not drawn)",
    "IC50 [nM]": 447
  },
  {
    "COMPOUND": "O=C(NCC(O)c1ccccc1OC(F)F)C1=Nc2ccc(I)cc2S(=O)(=O)N1 (stereo not drawn)",
    "IC50 [nM]": 403
  },
  {
    "COMPOUND": "Cc1noc(C(CNC(=O)C2=Nc3ccc(I)cc3S(=O)(=O)N2)c2ccccc2)n1 (stereo not drawn)",
    "IC50 [nM]": 10
  },
  {
    "COMPOUND": "CNC(=O)CCCOC(=O)C(CNC(=O)C1=Nc2ccc(I)cc2S(=O)(=O)N1)c1ccccc1 (stereo not drawn)",
    "IC50 [nM]": 229
  },
  {
    "COMPOUND": "O=C(NCC(c1ccc(F)cc1)c1ncco1)C1=Nc2ccc(I)cc2S(=O)(=O)N1 (stereo not drawn)",
    "IC50 [nM]": 17
  },
  {
    "COMPOUND": "O=C(NCC(c1ccccc1)c1ncco1)C1=Nc2ccc(-c3c[nH]nn3)cc2S(=O)(=O)N1 (stereo not drawn)",
    "IC50 [nM]": 2
  },
  {
    "COMPOUND": "O=C(NCCc1ccccc1-c1cccnc1)C1=Nc2ccccc2S(=O)(=O)N1",
    "IC50 [nM]": 5780
  },
  {
    "COMPOUND": "O=C(NCCc1ccccc1-n1ccnn1)C1=Nc2ccc(I)cc2S(=O)(=O)N1",
    "IC50 [nM]": 82
  },
  {
    "COMPOUND": "N#Cc1ccccc1C(CNC(=O)C1=Nc2ccccc2S(=O)(=O)N1)c1ncco1 (stereo not drawn)",
    "IC50 [nM]": 153
  },
  {
    "COMPOUND": "COC(=O)NC(CNC(=O)C1=Nc2ccccc2S(=O)(=O)N1)c1ccccc1 (stereo not drawn)",
    "IC50 [nM]": 250
  },
  {
    "COMPOUND": "COc1cccc(C(CNC(=O)C2=Nc3ccc(Cl)cc3S(=O)(=O)N2)c2ncco2)c1 (stereo not drawn)",
    "IC50 [nM]": 76
  },
  {
    "COMPOUND": "O=C(NCCC1CCCCC1)C1=Nc2ccc(-c3c[nH]nn3)cc2S(=O)(=O)N1",
    "IC50 [nM]": 268
  },
  {
    "COMPOUND": "O=C(NCC(c1ccccc1)c1ncc[nH]1)C1=Nc2ccccc2S(=O)(=O)N1 (stereo not drawn)",
    "IC50 [nM]": 99000
  },
  {
    "COMPOUND": "O=C(NCC(F)(c1ccccc1)c1ncco1)C1=Nc2ccc(Cl)cc2S(=O)(=O)N1 (stereo not drawn)",
    "IC50 [nM]": 13
  },
  {
    "COMPOUND": "O=C(NCC(c1cccc(O)c1)c1ncco1)C1=Nc2ccc(I)cc2S(=O)(=O)N1 (stereo not drawn)",
    "IC50 [nM]": 4
  },
  {
    "COMPOUND": "O=C(NCC(c1ncco1)c1ccccc1CO)C1=Nc2ccccc2S(=O)(=O)N1 (stereo not drawn)",
    "IC50 [nM]": 8800
  },
  {
    "COMPOUND": "O=C(NCC(c1ccccc1)c1ncco1)C1=Nc2ccc(C(=O)O)cc2S(=O)(=O)N1 (stereo not drawn)",
    "IC50 [nM]": 110
  },
  {
    "COMPOUND": "O=C(NCCc1ccccc1C(=O)O)C1=Nc2ccc(I)cc2S(=O)(=O)N1",
    "IC50 [nM]": 595
  },
  {
    "COMPOUND": "CS(=O)(=O)c1ccc2c(c1)S(=O)(=O)NC(C(=O)NCC(c1ccccc1)c1ncco1)=N2 (stereo not drawn)",
    "IC50 [nM]": 43
  },
  {
    "COMPOUND": "O=C(NCC(c1ccccc1)n1cccn1)C1=Nc2ccccc2S(=O)(=O)N1 (stereo not drawn)",
    "IC50 [nM]": 308
  },
  {
    "COMPOUND": "O=C(NCC(c1ccccc1)c1ncco1)C1=Nc2ccc(-c3nccs3)cc2S(=O)(=O)N1 (stereo not drawn)",
    "IC50 [nM]": 24
  },
  {
    "COMPOUND": "COC(=O)c1ccc2c(c1)S(=O)(=O)NC(C(=O)NCC(c1ccccc1)c1ccccc1)=N2",
    "IC50 [nM]": 490
  },
  {
    "COMPOUND": "COCc1ccccc1CCNC(=O)C1=Nc2ccc(I)cc2S(=O)(=O)N1",
    "IC50 [nM]": 10
  },
  {
    "COMPOUND": "O=C(NCCc1ccccc1-n1nccn1)C1=Nc2ccc(I)cc2S(=O)(=O)N1",
    "IC50 [nM]": 10
  },
  {
    "COMPOUND": "O=C(NCC(c1ccccc1)c1nnc(CC(F)(F)F)o1)C1=Nc2ccc(I)cc2S(=O)(=O)N1 (stereo not drawn)",
    "IC50 [nM]": 32
  },
  {
    "COMPOUND": "O=C(NCCc1ccccc1-n1ccnc1)C1=Nc2ccc(I)cc2S(=O)(=O)N1",
    "IC50 [nM]": 613
  },
  {
    "COMPOUND": "O=C(NCC(F)(F)c1ccccc1)C1=Nc2ccc(I)cc2S(=O)(=O)N1",
    "IC50 [nM]": 188
  },
  {
    "COMPOUND": "O=C(NCC(c1ccccc1)c1ncco1)C1=Nc2ccc(F)cc2S(=O)(=O)N1 (single isomer, unassigned) [Example 145]",
    "IC50 [nM]": 649
  }
]
